tested on: RXF 393 renal; assay: NCI tumour cell line growth inhibition, 48 h
Recorded measurements of TGI, one per entry

{"compound": "O=c1[nH]c2cc(Cl)ccc2nc1/C(=N\\O)C(O)c1ccc([N+](=O)[O-])cc1 (configuration not stated)", "experimental-target": "RXF 393 renal", "TGI": "> 100 µM"}
{"compound": "COc1cc(-c2nc(-c3nc4ccccc4[nH]3)cc3c2[nH]c2ccccc23)cc(OC)c1OC", "experimental-target": "RXF 393 renal", "TGI": "> 100 µM"}
{"compound": "CC1=NN(C(=O)c2ccc([N+](=O)[O-])cc2)C(=O)C1N=Nc1ccccc1C(=O)O (configuration not stated)", "experimental-target": "RXF 393 renal", "TGI": "> 100 µM"}
{"compound": "Clc1ccc(C(SCc2ccccc2)SCc2ccccc2)cc1", "experimental-target": "RXF 393 renal", "TGI": "> 10 µM"}
{"compound": "CN(C)C(=O)OC(Cn1cncn1)(Cn1cncn1)c1ccc(Cl)cc1Cl", "experimental-target": "RXF 393 renal", "TGI": "> 100 µM"}
{"compound": "CCOP(=O)(OCC)C(C#N)Cc1ccco1 (configuration not stated)", "experimental-target": "RXF 393 renal", "TGI": "> 10 µM"}
{"compound": "Cc1cc(C)c(Cn2cnc3c(Cl)ncnc32)c(C)c1CCl", "experimental-target": "RXF 393 renal", "TGI": "> 100 µM"}
{"compound": "COc1cc2c(cc1OC)C1(COc3cc(O)c(O)c(O)c3C1=O)C2 (configuration not stated)", "experimental-target": "RXF 393 renal", "TGI": "> 50 µM"}
{"compound": "COc1ccc(CN=C(N)N)c2ccccc12", "experimental-target": "RXF 393 renal", "TGI": "> 100 µM"}
{"compound": "C/C=C/CC(C)[C@@H](O)[C@H](NC)C(=O)O (some centres not stated)", "experimental-target": "RXF 393 renal", "TGI": "> 100 µM"}
{"compound": "CN(/N=C/c1ccnc2ccccc12)c1ccc(Cl)cc1[N+](=O)[O-]", "experimental-target": "RXF 393 renal", "TGI": "> 100 µM"}
{"compound": "CCn1c(-c2cc3ccccc3cc2O)nn(C(=O)c2c(Cl)cccc2Cl)c1=S", "experimental-target": "RXF 393 renal", "TGI": "> 50 µM"}

Provenance of the data: PubChem BioAssay (NCI)
